# Target Entity: T1, Recombinant Human DLL4 (delta-like protein 4) (human, UniProt Q9NR61 27-524)
# T1 construct: also called rHuman DLL4
# Assay Name: ELISA, plate-coated DLL4, Fab 100 nM
Overview of recorded ELISA signal at 100 nM Fab for various binders
Endpoint Name: ELISA signal at 100 nM Fab

[[record]]
binder = "Fab VH1-46_IGHD6-6*01_IGHJ1*01 S102A/S103P/S104F/H111F (APFF) & L6_IGKJ1*01 S28N/S30D/S31H A55G (Fab, V domains shown, Fab made in E. coli: VH in plasmid A (CH1, His6 and Flag tags), VL in plasmid C (kappa CL); also called H:APFF & L:NDH A55G; APFF / NDH/A55G) VH: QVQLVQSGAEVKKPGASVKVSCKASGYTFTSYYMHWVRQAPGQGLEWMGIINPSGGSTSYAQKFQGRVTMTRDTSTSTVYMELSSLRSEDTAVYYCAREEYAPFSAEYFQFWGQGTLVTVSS VL: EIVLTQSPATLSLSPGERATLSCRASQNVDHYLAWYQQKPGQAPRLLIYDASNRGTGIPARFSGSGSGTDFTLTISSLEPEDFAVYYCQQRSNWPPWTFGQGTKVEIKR"
number = 0.814

[[record]]
binder = "Fab VH1-46_IGHD6-6*01_IGHJ1*01 S102A/S103P/S104F/H111F (APFF) & L6_IGKJ1*01 S28N/S30D/S31H N53H (Fab, V domains shown, Fab made in E. coli: VH in plasmid A (CH1, His6 and Flag tags), VL in plasmid C (kappa CL); also called H:APFF & L:NDH N53H; APFF / NDH/N53H) VH: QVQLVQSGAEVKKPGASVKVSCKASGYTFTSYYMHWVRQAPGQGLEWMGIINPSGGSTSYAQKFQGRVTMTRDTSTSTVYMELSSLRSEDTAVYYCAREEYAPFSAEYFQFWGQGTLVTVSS VL: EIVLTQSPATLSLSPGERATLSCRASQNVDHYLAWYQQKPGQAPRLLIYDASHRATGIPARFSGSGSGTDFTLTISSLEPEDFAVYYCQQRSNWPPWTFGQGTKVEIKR"
number = 0.608

[[record]]
binder = "Fab VH1-46_IGHD6-6*01_IGHJ1*01 S102A/S103P/S104F/H111F (APFF) & L6_IGKJ1*01 S28N/S30D/S31H S52T (Fab, V domains shown, Fab made in E. coli: VH in plasmid A (CH1, His6 and Flag tags), VL in plasmid C (kappa CL); also called H:APFF & L:NDH S52T; APFF / NDH/S52T) VH: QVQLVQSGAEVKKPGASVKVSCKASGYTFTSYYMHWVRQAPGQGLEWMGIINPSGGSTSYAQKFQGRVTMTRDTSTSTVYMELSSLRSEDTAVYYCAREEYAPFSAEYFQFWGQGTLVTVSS VL: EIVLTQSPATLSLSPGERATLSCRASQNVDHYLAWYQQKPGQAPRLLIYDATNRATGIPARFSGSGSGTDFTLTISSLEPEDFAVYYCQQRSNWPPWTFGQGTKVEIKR"
number = 0.653

